target: Casein kinase I isoform alpha (Homo sapiens, UniProt P48729); assay: Inhibition of CK1 after 30 mins by liquid scintillation counter
Sequence (P48729 whole entry, canonical isoform): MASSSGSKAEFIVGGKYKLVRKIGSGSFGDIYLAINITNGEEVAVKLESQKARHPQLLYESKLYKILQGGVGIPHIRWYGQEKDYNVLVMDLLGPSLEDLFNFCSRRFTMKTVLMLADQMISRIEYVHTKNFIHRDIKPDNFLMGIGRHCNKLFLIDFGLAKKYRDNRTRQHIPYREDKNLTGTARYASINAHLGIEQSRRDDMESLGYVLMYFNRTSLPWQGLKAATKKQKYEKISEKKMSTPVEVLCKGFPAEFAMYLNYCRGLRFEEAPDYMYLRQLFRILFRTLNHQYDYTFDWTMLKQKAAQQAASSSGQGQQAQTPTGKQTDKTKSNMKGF
attribute_measured: IC50 (nM)

// below: answered compounds
• CC(C)[C@H](N)C(=O)OC[C@H](O)CNc1nc(NCc2ccc(-c3ccccn3)cc2)c2ncn(C(C)C)c2n1 = 150
• CC(C)n1cnc2c(NCc3ccc(-c4ccccn4)cc3)nc(N3C[C@H](O)C[C@H]3CO)nc21 = 390

(I) CC(C)n1cnc2c(NCc3ccc(-c4ccccn4)cc3)nc(NCC[C@H](O)CO)nc21
(II) CC(C)n1cnc2c(NCc3ccc(-c4ccccn4)cc3)nc(NC[C@@H](O)CO)nc21
[ask] Compare the recorded IC50 of I and II ; state which is larger. # reply format: chosen label
[reply] I
